Target: UniProtKB Q01064
Assay: Recombinant PDE isozyme assay
Format: biochemical
property-name: IC50

# input Query (molecule): CC1=C(CCNCc2ccccc2)c2cc(F)ccc2/C1=C\c1ccc([S+](C)[O-])cc1 (stereo not shown) [SBA] ; field requested: IC50
# output > 100 µM

----------
Target: PDE9A (Homo sapiens)
Test: Recombinant PDE isozyme assay
pIC50: −log10 of the molar value.
property-name: pIC50

# input Hello, I am looking for reported pIC50 with PDE9A (Homo sapiens) for CC1=C(CCNCc2ccccc2)c2cc(F)ccc2/C1=C\c1ccc([S+](C)[O-])cc1 (stereo not shown) [SBA] . Could you help?
# output < 4.00

----------
Target: PDE3A (Homo sapiens)
Sequence (Q14432 whole entry): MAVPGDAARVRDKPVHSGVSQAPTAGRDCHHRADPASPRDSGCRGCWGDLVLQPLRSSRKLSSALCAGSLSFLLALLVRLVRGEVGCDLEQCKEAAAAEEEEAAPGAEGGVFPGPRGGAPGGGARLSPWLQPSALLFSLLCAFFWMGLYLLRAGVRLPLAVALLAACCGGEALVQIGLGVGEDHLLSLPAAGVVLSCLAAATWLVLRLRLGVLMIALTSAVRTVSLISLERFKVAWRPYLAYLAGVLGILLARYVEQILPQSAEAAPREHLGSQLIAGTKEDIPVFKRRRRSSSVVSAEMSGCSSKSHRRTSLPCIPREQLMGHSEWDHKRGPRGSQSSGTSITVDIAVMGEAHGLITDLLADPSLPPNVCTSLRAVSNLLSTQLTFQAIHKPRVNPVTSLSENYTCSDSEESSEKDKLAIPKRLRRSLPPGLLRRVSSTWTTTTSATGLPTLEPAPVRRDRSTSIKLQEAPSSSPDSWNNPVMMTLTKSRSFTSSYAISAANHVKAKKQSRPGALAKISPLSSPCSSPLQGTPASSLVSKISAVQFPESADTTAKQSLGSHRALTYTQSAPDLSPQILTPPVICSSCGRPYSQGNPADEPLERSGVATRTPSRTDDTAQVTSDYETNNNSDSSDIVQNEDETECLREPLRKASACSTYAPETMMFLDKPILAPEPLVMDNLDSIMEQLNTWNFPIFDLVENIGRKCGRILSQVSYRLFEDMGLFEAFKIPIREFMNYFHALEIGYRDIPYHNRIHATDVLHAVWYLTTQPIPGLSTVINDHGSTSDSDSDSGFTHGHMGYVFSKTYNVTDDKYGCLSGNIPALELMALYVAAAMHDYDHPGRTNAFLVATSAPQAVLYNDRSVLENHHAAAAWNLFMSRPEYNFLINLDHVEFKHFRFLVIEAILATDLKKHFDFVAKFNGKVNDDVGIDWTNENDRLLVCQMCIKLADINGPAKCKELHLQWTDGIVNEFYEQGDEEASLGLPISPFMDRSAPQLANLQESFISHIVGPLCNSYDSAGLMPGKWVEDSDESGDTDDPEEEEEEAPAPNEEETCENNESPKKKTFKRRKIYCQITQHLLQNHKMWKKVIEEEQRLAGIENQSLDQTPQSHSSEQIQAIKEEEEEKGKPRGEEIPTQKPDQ
Assay: Recombinant PDE isozyme assay
Type: biochemical
Details: read-out: cAMP IC50; PDE 3A, cAMP substrate
property-name: IC50

# input Sample CC1=C(CCNCc2ccccc2)c2cc(F)ccc2/C1=C\c1ccc([S+](C)[O-])cc1 (stereo not shown) — what was its IC50?
# output > 100 µM

----------
Biological target: PDE8A (Homo sapiens, UniProt O60658)
Assay: Recombinant PDE isozyme assay
pIC50: −log10 of the molar value.
property-name: pIC50

# input For CC1=C(CCNCc2ccccc2)c2cc(F)ccc2/C1=C\c1ccc([S+](C)[O-])cc1 (stereo not shown) , what is its reported pIC50?
# output < 4.00

----------
Molecular target: PDE7A (Homo sapiens)
Sequence (Q13946 whole entry): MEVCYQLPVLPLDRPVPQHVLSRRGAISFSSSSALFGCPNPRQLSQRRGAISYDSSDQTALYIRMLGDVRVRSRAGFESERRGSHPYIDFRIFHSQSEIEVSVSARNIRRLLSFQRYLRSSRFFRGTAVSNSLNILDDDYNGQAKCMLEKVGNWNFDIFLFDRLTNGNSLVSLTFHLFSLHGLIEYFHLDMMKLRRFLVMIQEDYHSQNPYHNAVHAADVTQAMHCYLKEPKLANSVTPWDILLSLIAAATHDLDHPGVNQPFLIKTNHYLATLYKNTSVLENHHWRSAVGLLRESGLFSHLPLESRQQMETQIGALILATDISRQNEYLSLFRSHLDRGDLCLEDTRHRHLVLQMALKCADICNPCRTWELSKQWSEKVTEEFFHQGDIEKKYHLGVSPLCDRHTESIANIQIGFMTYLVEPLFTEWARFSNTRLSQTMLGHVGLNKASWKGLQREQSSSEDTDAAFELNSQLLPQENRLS
Assay: Recombinant PDE isozyme assay
pIC50: −log10 of the molar value.
property-name: pIC50

# input Param readout = pIC50; param system = PDE7A (Homo sapiens); param query = CC1=C(CCNCc2ccccc2)c2cc(F)ccc2/C1=C\c1ccc([S+](C)[O-])cc1 (stereo not shown) [SBA] ; response: value
# output < 4.00

----------
Molecular target: PDE6C (Homo sapiens, UniProt P51160)
Test: Recombinant PDE isozyme assay
pIC50: −log10 of the molar value.
property-name: pIC50

# input Entry CC1=C(CCNCc2ccccc2)c2cc(F)ccc2/C1=C\c1ccc([S+](C)[O-])cc1 (stereo not shown) [SBA] has what pIC50?
# output < 4.00

----------
Target: UniProt Q07343
Sequence (Q07343 whole entry): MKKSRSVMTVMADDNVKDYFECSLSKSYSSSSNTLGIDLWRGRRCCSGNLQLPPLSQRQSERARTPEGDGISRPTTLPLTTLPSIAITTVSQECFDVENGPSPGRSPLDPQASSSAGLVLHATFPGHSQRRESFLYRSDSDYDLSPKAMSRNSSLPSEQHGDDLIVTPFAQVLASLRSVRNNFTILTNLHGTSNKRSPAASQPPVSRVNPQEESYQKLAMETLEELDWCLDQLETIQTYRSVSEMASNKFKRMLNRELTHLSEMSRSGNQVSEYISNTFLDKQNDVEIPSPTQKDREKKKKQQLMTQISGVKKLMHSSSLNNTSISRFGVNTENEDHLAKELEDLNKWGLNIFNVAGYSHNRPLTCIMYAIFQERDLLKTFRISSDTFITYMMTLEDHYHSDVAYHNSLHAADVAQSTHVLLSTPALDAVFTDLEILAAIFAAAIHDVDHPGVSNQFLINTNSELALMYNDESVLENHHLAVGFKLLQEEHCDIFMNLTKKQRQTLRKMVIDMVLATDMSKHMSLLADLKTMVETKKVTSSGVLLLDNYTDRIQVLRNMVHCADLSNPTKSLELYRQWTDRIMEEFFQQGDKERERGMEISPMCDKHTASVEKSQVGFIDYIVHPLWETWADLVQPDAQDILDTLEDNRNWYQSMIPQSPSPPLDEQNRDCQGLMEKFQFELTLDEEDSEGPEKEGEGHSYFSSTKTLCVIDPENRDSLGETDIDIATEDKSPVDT
Test: Recombinant PDE isozyme assay
property-name: IC50 (µM)
Write it as a number; the unit µM goes unstated.

# input Give its IC50 value. Item: CC1=C(CCNCc2ccccc2)c2cc(F)ccc2/C1=C\c1ccc([S+](C)[O-])cc1 (stereo not shown)
# output 75

----------
Molecular target: PDE1B (Homo sapiens, UniProt Q01064)
Sequence (Q01064 whole entry): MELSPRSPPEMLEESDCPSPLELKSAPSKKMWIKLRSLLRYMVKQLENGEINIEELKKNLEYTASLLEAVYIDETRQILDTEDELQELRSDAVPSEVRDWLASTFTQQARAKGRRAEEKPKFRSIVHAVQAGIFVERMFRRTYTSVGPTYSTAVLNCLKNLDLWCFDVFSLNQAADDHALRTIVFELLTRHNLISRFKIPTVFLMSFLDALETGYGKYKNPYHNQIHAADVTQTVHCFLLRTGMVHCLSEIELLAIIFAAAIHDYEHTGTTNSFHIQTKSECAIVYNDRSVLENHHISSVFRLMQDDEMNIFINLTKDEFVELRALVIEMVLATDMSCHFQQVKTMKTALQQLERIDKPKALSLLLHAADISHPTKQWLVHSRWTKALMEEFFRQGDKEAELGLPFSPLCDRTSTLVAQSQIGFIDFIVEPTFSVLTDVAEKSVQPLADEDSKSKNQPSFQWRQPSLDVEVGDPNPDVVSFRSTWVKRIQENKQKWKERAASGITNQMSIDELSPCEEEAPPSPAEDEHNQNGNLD
Test: Recombinant PDE isozyme assay
Assay type: biochemical
Conditions: read-out: cAMP IC50; PDE 1B, cAMP substrate
property-name: IC50

# input Any idea what IC50 came out for CC1=C(CCNCc2ccccc2)c2cc(F)ccc2/C1=C\c1ccc([S+](C)[O-])cc1 (stereo not shown) [SBA] on PDE1B (Homo sapiens, UniProt Q01064)?
# output > 100 µM

----------
Target: UniProt:Q9HCR9
Assay: Recombinant PDE isozyme assay
Type: biochemical
property-name: IC50

# input What reported IC50 corresponds to CC1=C(CCNCc2ccccc2)c2cc(F)ccc2/C1=C\c1ccc([S+](C)[O-])cc1 (stereo not shown) on UniProt:Q9HCR9?
# output > 100 µM

----------
System: HT-29 colon tumor cells
Assay: Growth assay
Assay type: cell-based
Conditions: Homo sapiens, HT-29, read-out: growth inhibition IC50
property-name: IC50
Give the number first and the unit second.

# input What reported IC50 corresponds to CC1=C(CCNCc2ccccc2)c2cc(F)ccc2/C1=C\c1ccc([S+](C)[O-])cc1 (stereo not shown) on HT-29 colon tumor cells?
# output 5 µM

----------
Biological target: PDE11A (Homo sapiens)
Assay: Recombinant PDE isozyme assay
Type: biochemical
Conditions: read-out: cAMP IC50; PDE 11A, cAMP substrate
pIC50: −log10 of the molar value.
property-name: pIC50

# input Look up pIC50: CC1=C(CCNCc2ccccc2)c2cc(F)ccc2/C1=C\c1ccc([S+](C)[O-])cc1 (stereo not shown)
# output < 4.00

----------
Molecular target: PDE2A (Homo sapiens, UniProt O00408)
Sequence (O00408 whole entry): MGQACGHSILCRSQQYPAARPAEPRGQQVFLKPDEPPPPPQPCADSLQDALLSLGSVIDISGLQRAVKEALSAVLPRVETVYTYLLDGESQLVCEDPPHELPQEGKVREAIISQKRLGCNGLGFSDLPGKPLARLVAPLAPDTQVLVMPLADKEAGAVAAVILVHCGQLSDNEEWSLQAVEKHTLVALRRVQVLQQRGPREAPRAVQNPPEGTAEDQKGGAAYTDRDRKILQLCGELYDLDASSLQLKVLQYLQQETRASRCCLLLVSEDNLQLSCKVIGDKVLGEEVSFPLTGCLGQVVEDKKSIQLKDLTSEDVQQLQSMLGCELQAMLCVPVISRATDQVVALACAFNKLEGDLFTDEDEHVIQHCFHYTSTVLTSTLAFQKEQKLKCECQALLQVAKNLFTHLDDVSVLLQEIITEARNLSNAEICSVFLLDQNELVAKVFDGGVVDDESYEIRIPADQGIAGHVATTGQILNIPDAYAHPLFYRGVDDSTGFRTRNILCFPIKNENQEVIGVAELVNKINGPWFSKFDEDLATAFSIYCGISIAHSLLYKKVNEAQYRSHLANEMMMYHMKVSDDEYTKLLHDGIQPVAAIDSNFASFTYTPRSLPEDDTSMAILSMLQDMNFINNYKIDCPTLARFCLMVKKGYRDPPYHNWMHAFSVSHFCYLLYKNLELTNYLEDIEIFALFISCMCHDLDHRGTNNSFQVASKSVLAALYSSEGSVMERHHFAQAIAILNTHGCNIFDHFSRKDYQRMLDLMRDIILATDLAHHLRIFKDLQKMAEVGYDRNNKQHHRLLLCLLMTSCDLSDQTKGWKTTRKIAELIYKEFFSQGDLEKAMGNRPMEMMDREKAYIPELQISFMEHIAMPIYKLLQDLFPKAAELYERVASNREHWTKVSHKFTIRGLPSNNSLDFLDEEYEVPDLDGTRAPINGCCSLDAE
Assay: Recombinant PDE isozyme assay
Type: biochemical
property-name: IC50

# input Request the reported IC50 associated with CC1=C(CCNCc2ccccc2)c2cc(F)ccc2/C1=C\c1ccc([S+](C)[O-])cc1 (stereo not shown)
# output > 100 µM

----------
Molecular target: PDE3B (Homo sapiens, UniProt Q13370)
Sequence (Q13370 whole entry): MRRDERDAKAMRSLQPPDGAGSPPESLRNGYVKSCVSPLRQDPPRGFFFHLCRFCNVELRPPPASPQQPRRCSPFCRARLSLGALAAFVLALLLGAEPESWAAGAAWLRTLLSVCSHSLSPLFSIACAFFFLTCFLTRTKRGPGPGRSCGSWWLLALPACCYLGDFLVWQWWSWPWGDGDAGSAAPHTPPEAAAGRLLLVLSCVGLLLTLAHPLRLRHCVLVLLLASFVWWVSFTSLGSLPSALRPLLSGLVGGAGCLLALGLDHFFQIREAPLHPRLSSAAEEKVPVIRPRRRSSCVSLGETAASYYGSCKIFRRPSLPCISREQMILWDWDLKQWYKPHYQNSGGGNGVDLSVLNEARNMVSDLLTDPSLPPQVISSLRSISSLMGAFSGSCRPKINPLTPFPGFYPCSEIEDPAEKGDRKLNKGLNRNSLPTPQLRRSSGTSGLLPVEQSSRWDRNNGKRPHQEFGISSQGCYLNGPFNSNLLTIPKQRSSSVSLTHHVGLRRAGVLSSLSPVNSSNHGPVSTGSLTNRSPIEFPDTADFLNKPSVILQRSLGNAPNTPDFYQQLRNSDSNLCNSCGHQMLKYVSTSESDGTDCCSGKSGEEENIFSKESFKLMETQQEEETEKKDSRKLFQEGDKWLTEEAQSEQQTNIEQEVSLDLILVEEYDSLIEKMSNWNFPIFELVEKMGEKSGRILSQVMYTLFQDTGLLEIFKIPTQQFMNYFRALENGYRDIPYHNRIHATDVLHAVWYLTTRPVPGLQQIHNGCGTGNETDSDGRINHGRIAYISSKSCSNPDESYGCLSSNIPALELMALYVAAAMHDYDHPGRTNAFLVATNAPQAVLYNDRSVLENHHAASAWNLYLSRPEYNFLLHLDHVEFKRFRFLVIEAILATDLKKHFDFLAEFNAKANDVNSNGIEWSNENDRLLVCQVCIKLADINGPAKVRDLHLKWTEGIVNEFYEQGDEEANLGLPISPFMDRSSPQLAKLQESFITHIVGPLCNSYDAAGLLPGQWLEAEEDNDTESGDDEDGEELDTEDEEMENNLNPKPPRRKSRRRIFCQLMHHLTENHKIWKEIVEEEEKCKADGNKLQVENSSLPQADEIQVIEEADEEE
Assay: Recombinant PDE isozyme assay
Assay type: biochemical
property-name: IC50

# input For the molecule shown here, CC1=C(CCNCc2ccccc2)c2cc(F)ccc2/C1=C\c1ccc([S+](C)[O-])cc1 (stereo not shown) [SBA] , give the reported IC50.
# output > 100 µM

Cited source for all entries: paper PMC3546530
